Provide the reported IC50 of each item.
system: SK-BR-3; assay: Antiproliferative activity against human SKBR3 cells assessed as reduction in cell viability incubated for 2 days by MTT assay; type: functional, cell-based; conditions: SK-BR-3, 48 h

I would be grateful if you could share the reported IC50 for O=C1CC(c2ccc(O)cc2)Oc2cc(O)c(CN3CCN(CCCN4c5ccccc5Sc5ccccc54)CC3)c(O)c21 (stereo not given) . > 50 µM

Repeat for the following compound: O=C1CC(c2ccc(O)cc2)Oc2cc(O)c(CN3CCN(CCCN4c5ccccc5Sc5ccc(C(F)(F)F)cc54)CC3)c(O)c21 (stereo not given) > 50 µM

Repeat for the following compound: O=C(CCC(=O)N1CCN(CCCN2c3ccccc3Sc3ccc(C(F)(F)F)cc32)CC1)OCCOc1no[n+]([O-])c1S(=O)(=O)c1ccccc1 1.51 µM

Repeat for the following compound: COCCN(CCCN1c2ccccc2Sc2ccc(C(F)(F)F)cc21)CCOC > 50 µM

Repeat for the following compound: COCCN(CCCN1c2ccccc2Sc2ccc(SC)cc21)CCOC 31.9 µM
